- Test system: MDCK cells
Reported property: CC50

Record request: CC50 value, item OC[C@H]1O[C@@H](n2ccc3c(C#CC4CC4)ncnc32)[C@H](O)[C@@H]1O > 100 µM

----------
- Test system: influenza A (H1N1) virus (California/07/2009 strain)
- Assay text: microbe, parasite or virus in culture
- Assay type: cell-based
- Condition: read-out: EC50 California/07/2009 strain
Reported property: EC50 (nM)
Give bare numbers, in nM.

Below: 4 compounds and their reported EC50.
# Mol, Unit abbrev, EC50
data = [
    ("CCCC#Cc1ncnc2c1ccn2[C@@H]1O[C@H](CO)[C@@H](O)[C@H]1O", "nM", 2300),
    ("CC#Cc1ncnc2c1ccn2[C@@H]1O[C@H](CO)[C@@H](O)[C@H]1O", "nM", 2900),
    ("C#Cc1cn([C@@H]2O[C@H](CO)[C@@H](O)[C@H]2O)c2ncnc(CC)c12", "nM", 520),
    ("CC(C)C#Cc1ncnc2c1ccn2[C@@H]1O[C@H](CO)[C@@H](O)[C@H]1O", "nM", 3000),
]

Next compound, EC50 to be filled in.
I am curious: what EC50 value has been reported for CCc1ncnc2c1c(F)cn2[C@@H]1O[C@H](CO)[C@@H](O)[C@H]1O ? 320

----------
- Assay text: in vitro
- Condition: African green monkey, CC50
Reported property: CC50

Name the reported CC50 value associated with the compound NC(=O)c1ncn([C@@H]2O[C@H](CO)[C@@H](O)[C@H]2O)n1 [Ribavirin, ribavirin, reference compound] > 2950 µM

----------
- Assay text: in vitro
- Condition: dog, CC50 MDCK
Could you please report measured CC50 for the items listed next?

I'm hoping you can list CC50 for every compound here, please.
1. CCc1ncnc2c1c(Cl)cn2[C@@H]1O[C@H](CO)[C@@H](O)[C@H]1O
2. OC[C@H]1O[C@@H](n2ccc3c(C4CC4)ncnc32)[C@H](O)[C@@H]1O [3.1a, reference compound]
3. C#Cc1cn([C@@H]2O[C@H](CO)[C@@H](O)[C@H]2O)c2ncnc(CC)c12
4. CCc1ncnc2c1c(I)cn2[C@@H]1O[C@H](CO)[C@@H](O)[C@H]1O

1. > 100 µM
2. > 100 µM
3. > 100 µM
4. > 100 µM

Would you be so kind as to report CC50 for each listed record?
1. C=Cc1cn([C@@H]2O[C@H](CO)[C@@H](O)[C@H]2O)c2ncnc(CC)c12
2. CCCC#Cc1ncnc2c1ccn2[C@@H]1O[C@H](CO)[C@@H](O)[C@H]1O
3. OC[C@H]1O[C@@H](n2ccc3c(C#Cc4ccc(Cl)cc4)ncnc32)[C@H](O)[C@@H]1O
4. NC(=O)c1ncn([C@@H]2O[C@H](CO)[C@@H](O)[C@H]2O)n1 [Ribavirin, ribavirin, reference compound]
5. CCc1ncnc2c1c(Br)cn2[C@@H]1O[C@H](CO)[C@@H](O)[C@H]1O
6. CCc1ncnc2c1c(F)cn2[C@@H]1O[C@H](CO)[C@@H](O)[C@H]1O

1: > 100 µM; 2: 9.1 µM; 3: 2.4 µM; 4: > 1000 µg/mL; 5: > 100 µM; 6: 32 µM

The following compounds each have a reported value; give each one's CC50.
1. CCc1ncnc2c1c(C#CC1CC1)cn2[C@@H]1O[C@H](CO)[C@@H](O)[C@H]1O
2. CC#Cc1ncnc2c1ccn2[C@@H]1O[C@H](CO)[C@@H](O)[C@H]1O

1: > 100 µM; 2: 6.1 µM

----------
- System: tacaribe virus (TRVL11573 strain)
- Format: cell-based
Reported property: pEC50
One number for each entry, as −log10 of the molar value.

Need pEC50 of OC[C@H]1O[C@@H](n2ccc3c(C#CC4CC4)ncnc32)[C@H](O)[C@@H]1O [3.1c] , thanks. 5.96

----------
For each entry below, report its log10 of CC50 value.
- Tested on: Huh7 cells
- Condition: read-out: Yellow fever virus CC50 Huh7; Neutral Red; YFV screen
log10 CC50, µM

# Molecule, Assayed system, log10 of CC50
rows = [
    ("C=Cc1cn([C@@H]2O[C@H](CO)[C@@H](O)[C@H]2O)c2ncnc(CC)c12 [3.1m]", "Huh7 cells", 1.30),
    ("C#Cc1cn([C@@H]2O[C@H](CO)[C@@H](O)[C@H]2O)c2ncnc(CC)c12 [3.1l]", "Huh7 cells", 1.96),
    ("CCc1ncnc2c1c(F)cn2[C@@H]1O[C@H](CO)[C@@H](O)[C@H]1O [3.1r]", "Huh7 cells", 0.28),
    ("OC[C@H]1O[C@@H](n2ccc3c(C#CC4CCCC4)ncnc32)[C@H](O)[C@@H]1O [3.1g]", "Huh7 cells", 0.78),
    ("CC#Cc1ncnc2c1ccn2[C@@H]1O[C@H](CO)[C@@H](O)[C@H]1O [3.1d]", "Huh7 cells", 0.26),
    ("C=C(OCC)c1ncnc2c1ccn2[C@@H]1O[C@H](CO)[C@@H](O)[C@H]1O [3.1b]", "Huh7 cells", 1.34),
    ("CCc1ncnc2c1c(I)cn2[C@@H]1O[C@H](CO)[C@@H](O)[C@H]1O [3.1o]", "Huh7 cells", 1.93),
]

Please turn your attention to the following entry.
// query log10 of CC50 value for entry CCCC#Cc1ncnc2c1ccn2[C@@H]1O[C@H](CO)[C@@H](O)[C@H]1O [3.1f] 1.49

----------
- System: Huh7 cells
- Condition: read-out: Yellow fever virus CC50 Huh7; Visual; YFV screen
Reported property: CC50 (µM)
Numbers only, in µM.

# Mol, Assayed system, Observed result
records = [
    ("CC#Cc1ncnc2c1ccn2[C@@H]1O[C@H](CO)[C@@H](O)[C@H]1O", "Huh7 cells", 12),
]

For each listed entry, give its CC50.
1. OC[C@H]1O[C@@H](n2ccc3c(C#CC4CCCC4)ncnc32)[C@H](O)[C@@H]1O
2. C=Cc1cn([C@@H]2O[C@H](CO)[C@@H](O)[C@H]2O)c2ncnc(CC)c12
3. CCc1ncnc2c1c(C#CC1CC1)cn2[C@@H]1O[C@H](CO)[C@@H](O)[C@H]1O
4. OC[C@H]1O[C@@H](n2ccc3c(C#Cc4ccc(Cl)cc4)ncnc32)[C@H](O)[C@@H]1O
5. OC[C@H]1O[C@@H](n2ccc3c(C#CC4CC4)ncnc32)[C@H](O)[C@@H]1O

1: 8.6; 2: 4.6; 3: 100; 4: 28; 5: 32

----------
Kindly supply the reported CC50 at 3 days values for the records listed here.
- Assay text: Cytotoxicity in the human norovirus replicon assay (HG23 cells)
- Condition: human, HG23 Nov replicon cells
Answers are plain numbers, in µM.

Some entries whose results are on file:
# Compound, CC50 at 3 days (µM)
rows = [
    ("CC#Cc1ncnc2c1ccn2[C@@H]1O[C@H](CO)[C@@H](O)[C@H]1O [3.1d]", 17.4),
    ("CC(C)C#Cc1ncnc2c1ccn2[C@@H]1O[C@H](CO)[C@@H](O)[C@H]1O [3.1e]", 39.5),
]

Note: attention shifts to another entry.
Endpoint output: CC50 at 3 days of C#Cc1cn([C@@H]2O[C@H](CO)[C@@H](O)[C@H]2O)c2ncnc(CC)c12 [3.1l] . Value? 0.455

----------
- System: human norovirus genogroup I NoV (Norwalk virus replicon) in HG23 cells
- Assay text: Human norovirus antiviral assay, qRT PCR in HG23 NoV replicon cells
- Assay type: cell-based
- Condition: HG23 Nov replicon cells; qRT PCR intracellular RNA; read-out: EC50 human norovirus
Reported property: pEC50
Answers are plain numbers, as −log10 of the molar value.

Quick one: pEC50 for OC[C@H]1O[C@@H](n2ccc3c(C#CC4CCCC4)ncnc32)[C@H](O)[C@@H]1O [3.1g] ? 6.36

----------
- Assay text: Cytotoxicity in the human norovirus replicon assay (HG23 cells)
- Condition: human, HG23 Nov replicon cells
Reported property: CC50 at 3 days (µM)
Answers are plain numbers, in µM.

# Mol, Unit abbrev, Observed result
data = [
    ("CCCC#Cc1ncnc2c1ccn2[C@@H]1O[C@H](CO)[C@@H](O)[C@H]1O", "µM", 38.7),
]

Look up CC50 at 3 days: C=C(OCC)c1ncnc2c1ccn2[C@@H]1O[C@H](CO)[C@@H](O)[C@H]1O 60.5

----------
Assignment: determine reported EC50 for the given compounds.
- Tested on: yellow fever virus (YFV 17D strain)
- Assay text: microbe, parasite or virus in culture
- Format: cell-based
- Condition: Yellow fever virus, Huh-7, read-out: Yellow fever virus EC50 YFV 17D strain

Field: example entries. Status: answers known.
# Compound, Reported property, Observed result
data = [
    ("C#Cc1cn([C@@H]2O[C@H](CO)[C@@H](O)[C@H]2O)c2ncnc(CC)c12 [3.1l]", "EC50", "> 100 µM"),
    ("C=C(OCC)c1ncnc2c1ccn2[C@@H]1O[C@H](CO)[C@@H](O)[C@H]1O [3.1b]", "EC50", "> 28 µM"),
    ("CCc1ncnc2c1c(Cl)cn2[C@@H]1O[C@H](CO)[C@@H](O)[C@H]1O [3.1p]", "EC50", "> 100 µM"),
    ("OC[C@H]1O[C@@H](n2ccc3c(C4CC4)ncnc32)[C@H](O)[C@@H]1O [3.1a, reference compound]", "EC50", "> 100 µM"),
]

Hey, quick one: what's EC50 for each of these?
1. CCc1ncnc2c1c(Br)cn2[C@@H]1O[C@H](CO)[C@@H](O)[C@H]1O [3.1q]
2. CCc1ncnc2c1c(I)cn2[C@@H]1O[C@H](CO)[C@@H](O)[C@H]1O [3.1o]

1. > 100 µM
2. > 100 µM

Reference source: patent US20250144125A1
